target.or.system: AKR1C1 (Homo sapiens, UniProt Q04828)
Sequence (Q04828 whole entry, the tested form may be a part): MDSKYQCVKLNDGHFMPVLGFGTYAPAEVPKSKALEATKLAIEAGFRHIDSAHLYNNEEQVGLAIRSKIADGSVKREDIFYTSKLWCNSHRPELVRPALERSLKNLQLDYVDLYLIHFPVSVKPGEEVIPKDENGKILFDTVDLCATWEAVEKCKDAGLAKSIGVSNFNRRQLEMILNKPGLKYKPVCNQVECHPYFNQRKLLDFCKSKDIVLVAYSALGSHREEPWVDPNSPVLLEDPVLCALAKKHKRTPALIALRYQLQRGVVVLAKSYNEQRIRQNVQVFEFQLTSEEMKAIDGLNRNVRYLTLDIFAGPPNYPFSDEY
protocol: Enzyme activity (NADPH) assay with s-tetralol, recombinant GST-AKR1C1;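 note: GST-fused AKR1C1 expressed in E. coli and purified by glutathione affinity, control wells received DMSO instead of compound, duplicate samples from a single experiment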
Assay type: biochemical
Design: made in house; host or cells: Escherichia coli JM109
assay.context: 2 μM compound; Supplementary Table 1; read-out: % inhibition
test.readout: inhibition at 2 µM (%)
Could you give me the number in %? Just the number is fine.

Consider the reported inhibition at 2 µM for these molecules:
O=c1c(O[C@@H]2O[C@H](CO)[C@@H](O)[C@H](O)[C@H]2O)c(-c2ccc(O)cc2)oc2cc(O)cc(O)c12 [Astragalin]
37.6
C[C@@H]1O[C@@H](Oc2c(-c3ccc(O)c(O)c3)oc3cc(O)cc(O)c3c2=O)[C@H](O)[C@H](O)[C@H]1O [Quercitrin]
6.39
O=C(/C=C/c1ccc(O)cc1)CC(=O)/C=C/c1ccc(O)cc1 [Bisdemethoxycurcumin]
6.25
COc1ccc(-c2oc3cc(O)cc(O)c3c(=O)c2O)cc1 [Kaempferide]
5.36
O=c1c(O[C@@H]2O[C@H](CO)[C@H](O)[C@H](O)[C@H]2O)c(-c2ccc(O)c(O)c2)oc2cc(O)cc(O)c12 [Hyperoside]
-0.61

Query molecule follows.
Give a short answer stating reported inhibition at 2 µM for O=C(O[C@@H]1Cc2c(O)cc(O)cc2O[C@@H]1c1cc(O)c(O)c(O)c1)c1cc(O)c(O)c(O)c1 [(−)-Epigallocatechin gallate] . 0.47
